# protocol-details: Oral bioavailability in Sprague-Dawley rat at 10 mg/kg, po
# Assay type: ADME, organism-based
# settings: in vivo
readout-name: bioavailability (%)

A selection of reference data follows.
smiles-entry	bioavailability / %
CC(C)C[C@H](NC(=O)CCN(C)C)c1cc(Cl)ccc1N1CCN(C(=O)[C@H](C)Cc2ccc(Cl)cc2)CC1	18
Cc1ccc([C@@H](CC(C)C)NC(=O)CCN(C)C)c(N2CCN(C(=O)[C@H](C)Cc3ccc(Cl)cc3Cl)CC2)n1	19.6

A. Cc1ccc(N2CCN(C(=O)[C@H](C)Cc3ccc(Cl)cc3)CC2)c([C@H](CC(C)C)NC(=O)CCN(C)C)c1
B. Cc1ccc(N2CCN(C(=O)[C@@H](Cc3ccc(Cl)cc3Cl)N3CCCC3=O)CC2)c([C@H](CC(C)C)NC(=O)CCN(C)C)c1
Of A and B , which one carries the higher reported bioavailability? Use the label to indicate which entry you chose.
A
(A: 19%, B: 8.7%)

###

# target-under-test: Melanocortin receptor 4 (Homo sapiens)
# Sequence (P32245 whole entry): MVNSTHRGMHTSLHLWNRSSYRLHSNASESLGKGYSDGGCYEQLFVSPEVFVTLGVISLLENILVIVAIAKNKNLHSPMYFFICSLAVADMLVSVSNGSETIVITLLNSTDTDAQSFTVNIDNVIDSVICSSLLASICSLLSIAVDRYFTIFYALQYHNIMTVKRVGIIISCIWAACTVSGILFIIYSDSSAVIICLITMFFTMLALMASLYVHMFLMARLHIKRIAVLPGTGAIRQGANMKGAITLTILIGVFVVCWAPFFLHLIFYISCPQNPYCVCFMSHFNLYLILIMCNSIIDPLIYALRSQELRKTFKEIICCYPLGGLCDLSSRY
# protocol-details: Antagonist activity at human MC4R expressed in HEK293 cells assessed as inhibition of alpha-MSH-stimulated cAMP production
pIC50: −log10 of the molar value.
readout-name: pIC50

A selection of reference data follows.
smiles-entry	target-under-test	pIC50
CC(C)C[C@H](NC(=O)CCN(C)C)c1cc(Cl)ccc1N1CCN(C(=O)[C@H](C)Cc2ccc(Cl)cc2)CC1	Melanocortin receptor 4 (Homo sapiens)	6.03
Cc1ccc(N2CCN(C(=O)[C@H](C)Cc3ccc(Cl)cc3)CC2)c([C@@H](N)CC(C)C)c1	Melanocortin receptor 4 (Homo sapiens)	6.24

1. Cc1ccc(N2CCN(C(=O)[C@H](C)Cc3ccc(Cl)cc3)CC2)c([C@H](CC(C)C)NC(=O)CCN(C)C)c1
2. Cc1ccc([C@@H](CC(C)C)NC(=O)CCN(C)C)c(N2CCN(C(=O)[C@H](C)Cc3ccc(Cl)cc3Cl)CC2)n1
Which gives the smaller pIC50 number: 1 or 2 ? Use the label to indicate which entry you chose.
1

###

# protocol-details: Ratio of drug level in brain to plasma in CD1 mouse at 5 mg/kg, iv after 4 hrs
# Format: ADME, organism-based
# Parameters: dose 5 mg/kg, route intravenous
# settings: brain and plasma, read-out: BPR
readout-name: Kp at 4 h

P. CC(C)C[C@H](NC(=O)CCN(C)C)c1cc(Cl)ccc1N1CCN(C(=O)[C@H](C)Cc2ccc(Cl)cc2)CC1
Q. CC(C)C[C@@H](NC(=O)CN)c1cccnc1N1CCN(C(=O)[C@H](C)Cc2ccc(Cl)cc2Cl)CC1
R. CC(C)C[C@H](NCCN)c1cccc(F)c1N1CCN(C(=O)[C@@H](Cc2ccc(Cl)cc2Cl)N2CCCC2=O)CC1
Rank by Kp at 4 h (largest to smallest). Please reply with the labels ordered as requested. Many thanks.
P, R, Q
(P: 2.2, R: 0.23, Q: 0.15)

###

# protocol-details: Plasma concentration in CD1 mouse at 10 mg/kg, ip after 8 hrs
# Type: ADME, organism-based
# Design: dose 10 mg/kg, route intraperitoneal
readout-name: concentration at 8 h (ng/mL)
Write down the numeric answer in ng/mL and omit the unit.

concentration at 8 h reading for CC(C)C[C@H](NC(=O)CCN(C)C)c1cc(Cl)ccc1N1CCN(C(=O)[C@H](C)Cc2ccc(Cl)cc2)CC1 : 100
